- experimentalSystem: N-acylethanolamine-hydrolyzing acid amidase (Homo sapiens)
- Sequence (Q02083 29-125 limits assumed): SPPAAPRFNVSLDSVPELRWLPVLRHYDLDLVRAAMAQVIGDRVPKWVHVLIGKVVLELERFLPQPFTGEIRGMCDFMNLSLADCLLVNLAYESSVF
- Sequence (Q02083 126-359 limits assumed): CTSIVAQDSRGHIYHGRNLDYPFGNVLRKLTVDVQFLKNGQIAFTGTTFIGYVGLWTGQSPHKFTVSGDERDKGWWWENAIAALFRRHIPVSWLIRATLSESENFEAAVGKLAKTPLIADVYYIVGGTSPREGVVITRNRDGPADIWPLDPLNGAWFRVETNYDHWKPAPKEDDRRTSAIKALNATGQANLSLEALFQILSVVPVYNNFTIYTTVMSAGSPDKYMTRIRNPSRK
- methodSummary: Determining Endocannabinoid Hydrolase Activity: In the Experimental example, endocannabinoid hydrolases used were Fatty Acid Amide Hydrolase (FAAH) and N-acylethanolamide hydrolyzing acid amidase (NAAA), which were prepared by the method described in the document (PMCID: PMC3423427, PMC3723234, PMC2692831, PMC3382457). The preparation method was as followed: a plasmid (pCDNA3.1/NAAA or pCDNA3.1/FAAH) carrying a whole NAAA/FAAH gene was constructed, wherein the plasmid carried Cytomegalovirus (CMV) promoter and Neomycin selectable gene; the plasmid was transformed into HEK-293 cell via lipid medium, stable cell lines expressing NAAA/FAAH at a high level were obtained by G418 screening and Western-blot method. HEK-293 recombinant cells were cultured and collected, washed with PBS for 2-3 times, and ultrasonically treated in 20 mM Tris-HCl containing 0.32 M sucrose, then repeatedly frozen and thawed twice, and then centrifuged at 4° C., 800 g for 15 min. The supernatant (i.e., the desired protein) was collected, the protein concentration was determined by BCA method, and the protein was diluted to a concentration of 1 mg/mL, and sub-packaged and stored in a refrigerator at −80° C. for further use.In the Experimental example, PBS solution used was prepared as followed: 8 g NaCl, 0.2 g KCl, 1.44 g Na2HPO4, and 0.24 g KH2PO4 were dissolved in 1 L ultrapure water, and the resultant solution was subjected to moist heat sterilization and stored at 4° C.30 μL (1 mg/mL) endocannabinoid hydrolase was added to a sample vial, and 2 μL DMSO (Blank control group) or a different concentration of a test compound (Compounds 1-46 prepared in the Examples according to the invention) was further added. The reaction was carried out at 37° C. for 10 min. 170 μL buffer (the buffer consisted of 50 mM disodium Hydrogen Phosphate, 0.1% Triton X-100, 3 mM DTT, 150 μL) containing enzymatic hydrolysis substrate (the substrate was a heptadecenoyl ethanolamine containing a double bond and 17 carbon atoms, abbreviated as 17:1 FAE) was further added, wherein the concentration of 17:1 FAE was 5 μM. The reaction was carried out at 37° C. for 30 min, and 200 μL methanol solution containing internal standard (the internal standard was margaric acid, at a concentration of 1 nmol) was then added to stop the reaction. LC-MS was used to determine the yield of the hydrolysate 17:1 FA (i.e., a heptadecenoic acid containing a double bond) of 17:1 FAE, then a graph was plotted with Graphpad Prism 5. Thereby, the IC50 of the test compound on endocannabinoid hydrolase was determined.By the method above, the inhibitory effects of the Compounds 1-46 prepared in the invention on NAAA and FAAH were determined.
resultType: IC50 (nM)

As a guide, the following entries are already answered.
INSERT INTO assay_data (compound, experimentalsystem, resulttype, recordedvalue) VALUES
  ('CC(=O)C[C@@H]1COC(=O)N1C(=O)CCCCCc1ccc(C)cc1', 'N-acylethanolamine-hydrolyzing acid amidase (Homo sapiens)', 'IC50', 450),
  ('O=C(CCCCCc1ccccc1)N1CCOC1=O', 'N-acylethanolamine-hydrolyzing acid amidase (Homo sapiens)', 'IC50', 210),
  ('CCCCCCCCCCCCCCCC(=O)N1CCOC1=O', 'N-acylethanolamine-hydrolyzing acid amidase (Homo sapiens)', 'IC50', 46800),
  ('O=C(CCCCCc1cccc(F)c1)N1CCOC1=O', 'N-acylethanolamine-hydrolyzing acid amidase (Homo sapiens)', 'IC50', 250),
  ('CCCCCCCCCCCCCCCC(=O)N1CCNC1=O', 'N-acylethanolamine-hydrolyzing acid amidase (Homo sapiens)', 'IC50', 5400);

[A] O=C(CCCCCCc1ccc(Cl)cc1Cl)N1CCOC1=O
[B] O=C(CCCCCc1ccoc1)N1CCOC1=O
[C] O=C(CCCCCc1ccc(Cl)cc1)N1CCOC1=O
[D] O=C(CCCCCC1CCCNC1)N1CCOC1=O (stereo not given)
Arrange these compounds by their IC50, starting with the largest number. Output the labels ranked as instructed.
C, A, B, D
(C: 5100 nM, A: 2200 nM, B: 360 nM, D: 130 nM)

[A] O=C(CCCCCCc1ccccc1)N1CCOC1=O
[B] O=C(CCCCCCCc1ccccc1)N1CCOC1=O
[C] O=C(CCCCCc1ccc2cc(F)ccc2c1)N1CCOC1=O
[D] O=C1OCCN1C(=O)c1ccc(OCc2ccccc2)cc1
[E] O=C(CCCCc1ccc(F)cc1)N1CCOC1=O
Arrange these compounds by their IC50, starting with the largest number. Output the labels ranked as instructed.
B, A, C, D, E

[P] CC(=O)C[C@@H]1COC(=O)N1C(=O)CCCCCc1cccc(C)c1
[Q] O=C(CCCCCc1c[nH]c2ccccc12)N1CCOC1=O
Please compare: P and Q . Report which one has the smaller IC50 value. Respond using the label that marks the chosen record.
P
(P: 380 nM, Q: 23500 nM)

[a] O=C(CCCCCc1ccsc1)N1CCOC1=O
[b] O=C1OCCN1C(=O)c1cccc(OCc2ccccc2)c1
Please compare: a and b . Report which one has the smaller IC50 value. Respond using the label that marks the chosen record.
a
(a: 340 nM, b: 78600 nM)

[1] O=C(CCCCc1ccccc1)N1CCOC1=O
[2] O=C(CCCCCc1ccc2ccccc2c1)N1CCOC1=O
Please compare: 1 and 2 . Report which one has the smaller IC50 value. Respond using the label that marks the chosen record.
2

[1] O=C(CCCCc1cccc(Cl)c1)N1CCOC1=O
[2] C[C@@H]1COC(=O)N1C(=O)CCCCCc1ccccc1
[3] O=C(CCCCCC1CCCCC1)N1CCOC1=O
[4] O=C1OCCN1C(=O)c1cccc(-c2ccccc2)c1
Arrange these compounds by their IC50, starting with the largest number. Output the labels ranked as instructed.
4, 2, 1, 3
